Each recorded value in this set is attributed to paper PMC10269814.

# tested-target: LepB Δ2-76 His-SUMO (Escherichia coli signal peptidase I) (Escherichia coli)
# Construct: purchased Sapphire Bioscience
# test-summary: biochemical
# Assay type: binding
Ends that are not written are not given here.
Note to self: Kd under 9 µM means criterion met, ties and anything higher get criterion not met.

IN: Please determine if GGGTWAAFEEGK [Peptide 01] is below 9 µM in terms of Kd.
OUT: criterion not met

IN: Quick check: does GGGTWAAIE [Peptide 06] have Kd under 9 µM?
OUT: criterion not met

IN: Hi there! Is Kd for TWAAFN [Peptide 07] below 9 µM, do you know?
OUT: criterion met

IN: Kd strictly < 9 µM for this substance? VGGGTWAAFETL [Peptide 02]
OUT: criterion not met

IN: Say whether its Kd is strictly beneath 9 µM. Entry: GGTWAAFNDV [Peptide 03]
OUT: criterion met

IN: Quick check: Kd of TWAAIE [Peptide 08] under 9 µM?
OUT: criterion met
